Biological target: GST-Xa-hAAK1 (Homo sapiens)
Construct: made in house
Experiment: AAK1 kinase assay
Type: biochemical
Conditions: given as IC50 range; ATP 22 μM, 3 hours at room temperature
pIC50: −log10 of the molar value.
measure.name: pIC50

Check out these entries, answers already filled in.
Cc1nccc2c1c(=O)n(C)c1cc(OC[C@@H](N)CC(C)C)c(-c3cnco3)cc21 | > 9.00
Cc1nccc2c1c(=O)n(C)c1cc(OC[C@@H](N)CC(C)C)c(C#N)cc21 | > 9.00

Query :: // pIC50 lookup, key: Cc1nccc2c1c(=O)n(C)c1cc(OC[C@@H](N)CC(C)C(F)(F)F)ccc21 (single isomer, unassigned) [Example 87]
Result :: 8.00 to 9.00

Query :: Query (molecule): `CC(C)C[C@H](N)COc1cc2c(cc1-c1cnco1)c1ccncc1c(=O)n2C` ; field requested: pIC50
Result :: 8.00 to 9.00

###

Entries and their measured pIC50 follow.
Target: AAK1 (full length human) with AP2M1 in HEK293F cells (Homo sapiens)
Construct: expressed in transfected cells; host or cells: HEK293F
Sequence (Q2M2I8 whole entry): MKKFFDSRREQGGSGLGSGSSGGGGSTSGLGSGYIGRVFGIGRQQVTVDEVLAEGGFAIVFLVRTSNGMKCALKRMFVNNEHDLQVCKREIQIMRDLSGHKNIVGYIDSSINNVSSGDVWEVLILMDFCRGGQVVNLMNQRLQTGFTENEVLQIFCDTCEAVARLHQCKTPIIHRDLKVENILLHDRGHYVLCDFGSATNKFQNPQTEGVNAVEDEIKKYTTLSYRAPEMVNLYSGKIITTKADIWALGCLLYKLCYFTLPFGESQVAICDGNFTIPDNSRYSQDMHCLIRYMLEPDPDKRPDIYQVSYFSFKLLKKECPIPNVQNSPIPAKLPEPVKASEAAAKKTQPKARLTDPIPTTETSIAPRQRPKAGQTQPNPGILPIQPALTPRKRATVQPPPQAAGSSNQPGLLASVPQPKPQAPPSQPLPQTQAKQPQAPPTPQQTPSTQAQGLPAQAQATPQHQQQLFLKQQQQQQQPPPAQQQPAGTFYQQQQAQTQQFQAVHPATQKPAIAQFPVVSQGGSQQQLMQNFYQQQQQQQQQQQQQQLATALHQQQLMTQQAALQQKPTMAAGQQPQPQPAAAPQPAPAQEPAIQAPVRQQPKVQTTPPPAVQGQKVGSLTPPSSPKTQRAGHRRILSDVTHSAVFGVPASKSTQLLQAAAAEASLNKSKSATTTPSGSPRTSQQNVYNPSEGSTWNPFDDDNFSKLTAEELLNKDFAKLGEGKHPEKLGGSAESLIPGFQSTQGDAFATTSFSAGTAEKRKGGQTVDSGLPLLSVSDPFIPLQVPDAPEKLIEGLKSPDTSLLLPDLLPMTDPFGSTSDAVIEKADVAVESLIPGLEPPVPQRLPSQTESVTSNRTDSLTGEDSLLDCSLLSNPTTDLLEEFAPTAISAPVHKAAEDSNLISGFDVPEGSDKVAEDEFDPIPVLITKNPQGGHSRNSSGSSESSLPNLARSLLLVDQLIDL
Test: HEK281 cell-based assay (phospho-mu2 Western blot in transfected HEK293F cells)
Details: given as IC50 range, 3 hours, inhibition of mu2 phosphorylation
pIC50: −log10 of the molar value.

CC(C)CC(C)(N)COc1ccc2c3c(F)cncc3c(=O)n(C)c2c1 (stereo not shown) | 7.00 to 8.00
Cc1nccc2c1c(=O)n(C)c1cc(OC[C@H](N)CC(C)C)c(Cl)cc21 | 8.00 to 9.00
Cc1nccc2c1c(=O)n(C)c1cc(OC[C@@H](N)CC(C)C)c(-c3cnco3)cc21 | > 9.00
Cc1nccc2c1c(=O)n(C)c1cc(OC[C@@H](N)CC3CC3)c(Cl)cc21 | 8.00 to 9.00
Cn1c(=O)c2cnccc2c2cc(C#N)c(OCC(N)CCC(F)(F)F)cc21 (stereo not shown) | 8.00 to 9.00
Cc1nccc2c1c(=O)[nH]c1c(F)c(OC[C@@H](N)CC(C)C)c(Cl)cc12 | 7.00 to 8.00

Now, please, on to the next compound.
Query :: Requested read-out: pIC50. Entry: `Cc1nccc2c1c(=O)n(C)c1cc(OC[C@@H](N)CC(C)C)c(Cl)cc21`
Result :: 8.00 to 9.00

###

List of IC50 values.
Biological target: GST-Xa-hAAK1 (Homo sapiens, UniProt Q2M2I8)
Construct: made in house
Test: AAK1 kinase assay
Format: biochemical
Conditions: given as IC50 range; ATP 22 μM, 3 hours at room temperature

# example entries with known answers
Cc1nccc2c1c(=O)n(C)c1cc(OC[C@@H](N)CC(C)C)ccc21 | 10 to 100 nM
Cc1nccc2c1c(=O)[nH]c1c(F)c(OC[C@@H](N)CC(C)C)c(Cl)cc12 | 1 to 10 nM
COC[C@H](N)COc1ccc2c3ccncc3c(=O)n(C)c2c1 | 10 to 100 nM

Shifting focus to the compound that follows.
Query :: What does the record list as IC50 for `CC(C)C[C@H](N)COc1ccc2c3ccnc(C(F)F)c3c(=O)n(C)c2c1` ?
Result :: 100 to 2000 nM

###

Reported pIC50 values for the following compounds.
Molecular target: GST-Xa-hAAK1 (Homo sapiens)
Construct: made in house
Assay: AAK1 kinase assay
Type: biochemical
Settings: given as IC50 range; ATP 22 μM, 3 hours at room temperature
pIC50: −log10 of the molar value.

Worked examples follow.
Cc1nccc2c1c(=O)n(C)c1cc(OC[C@@H](N)CC(C)C)c(C(F)(F)F)cc21 [Example 75] | 8.00 to 9.00
Cc1cc2c(cn1)c(=O)n(C)c1cc(OC[C@@H](N)CC(C)C)c(Br)cc21 [Example 66] | 5.70 to 7.00
Cc1nccc2c1c(=O)n(C)c1cc(OC[C@@H](N)CC(C)C)c(S(C)(=O)=O)cc21 [Example 76] | 5.70 to 7.00
CC(C)C[C@H](N)COc1ccc2c3ccncc3c(=O)n(C(C)C)c2c1 [Example 8] | 7.00 to 8.00
COc1cc2c3ccnc(C)c3c(=O)n(C)c2cc1OC[C@@H](N)CC(C)C [Example 89] | 8.00 to 9.00
Cc1nccc2c1c(=O)n(C)c1cc(OCC(N)CC(F)(F)F)ccc21 (single isomer, unassigned) [Example 92] | 8.00 to 9.00
Cc1nccc2c1c(=O)n(C)c1cc(OC[C@@H](N)CC(C)C(F)(F)F)ccc21 (single isomer, unassigned) [Example 88] | 8.00 to 9.00
Cc1nccc2c1c(=O)n(C)c1cc(OC[C@@H](N)CC=C(F)F)c(C#N)cc21 [Example 106] | > 9.00
Cn1c(=O)c2cnccc2c2ccc(OC[C@@H](N)CC(C)(F)F)cc21 [Example 55] | 7.00 to 8.00
Cc1nccc2c1c(=O)n(C)c1cc(OC[C@@H](N)CC(C)C)c(-c3cncs3)cc21 [Example 83] | 8.00 to 9.00

Query :: Any idea what pIC50 was measured for Cc1nccc2c1c(=O)n(C)c1cc(OC[C@@H](N)CC(C)C)c(Cl)cc21 [Example 62] ?
Result :: 8.00 to 9.00

Query :: Give its pIC50 value. Item: Cc1nccc2c1c(=O)[nH]c1cc(OCC(C)(N)CC(C)C)c(F)cc12 (centres unmarked) [Example 102]
Result :: 8.00 to 9.00

Query :: For Cc1nccc2c1c(=O)n(C)c1cc(OCC(N)CCC(F)(F)F)c(C#N)cc21 (centres unmarked) [Example 73] , what is its reported pIC50?
Result :: 8.00 to 9.00

Query :: Please report the recorded pIC50 for CC(C)C[C@H](N)COc1cc2c(cc1F)c1ccnc(N)c1c(=O)n2C [Example 52] .
Result :: 8.00 to 9.00

Query :: # pIC50 lookup, item Cc1nccc2c1c(=O)n(C)c1cc(OC[C@@H](N)CC(C)C)c(-n3cccn3)cc21 [Example 74]
Result :: 8.00 to 9.00

Query :: May I ask what pIC50 has been recorded for Cc1nccc2c1c(=O)n(C)c1cc(OCC(N)CC(F)(F)F)ccc21 (single isomer, unassigned) [Example 91] ?
Result :: 7.00 to 8.00

Query :: Endpoint output: pIC50 of Cc1cc2c3ccnc(C)c3c(=O)n(C)c2cc1OC[C@@H](N)CC(C)C [Example 63] . Value?
Result :: 8.00 to 9.00

Query :: State the recorded pIC50 for this entry: Cc1nccc2c1c(=O)n(C)c1cc(OC[C@@H](N)CC(C)C)c(C(=O)N(C)C)cc21 [Example 96]
Result :: 5.70 to 7.00

Query :: Fill in: pIC50 of CCc1cc2c3ccncc3c(=O)n(C)c2cc1OC[C@@H](N)CC(C)C [Example 46] is ___
Result :: 8.00 to 9.00

Query :: I'd like to know its pIC50. The compound in question is CC(=O)Nc1cc2c(cn1)c(=O)n(C)c1cc(OC[C@@H](N)CC(C)C)ccc21 [Example 18]
Result :: 5.70 to 7.00

Query :: Report pIC50 for Cc1nccc2c1c(=O)n(C)c1cc(OC[C@@H](N)CC(C)C)c(F)cc21 [Example 70] please.
Result :: 8.00 to 9.00

Query :: Form field: reported pIC50 of CC(C)CC(C)(N)COc1ccc2c3c(F)cncc3c(=O)n(C)c2c1 (centres unmarked) [Example 97]
Result :: 8.00 to 9.00

Query :: Item under review: Cc1nccc2c1c(=O)n(C)c1cc(OC[C@@H](N)CC(C)C)c(OC(F)F)cc21 [Example 90] . Reported pIC50?
Result :: 7.00 to 8.00

Query :: What pIC50 value was documented for this compound, Cc1nccc2c1c(=O)n(C)c1cc(OC[C@H](N)CC(C)C)c(Cl)cc21 [Example 20] ?
Result :: 8.00 to 9.00

Query :: Look up pIC50 for this compound: CC(C)CC(C)(N)COc1ccc2c3ccncc3c(=O)n(C)c2c1 (single isomer, unassigned) [Example 59]
Result :: 8.00 to 9.00

Query :: Would you mind telling me what pIC50 value was observed for CN[C@H](COc1ccc2c3ccncc3c(=O)n(C)c2c1)CC(C)C [Example 54] ?
Result :: 7.00 to 8.00

###

List of pIC50 values.
Biological target: AAK1 (full length human) with AP2M1 in HEK293F cells (Homo sapiens)
Construct: expressed in transfected cells; host or cells: HEK293F
Experiment: HEK281 cell-based assay (phospho-mu2 Western blot in transfected HEK293F cells)
Settings: given as IC50 range, 3 hours, inhibition of mu2 phosphorylation
pIC50: −log10 of the molar value.

# annotated cases, reported pIC50 shown
CC(C)C[C@H](N)COc1cc2c(cc1C(C)C)c1ccncc1c(=O)n2C | 7.00 to 8.00
Cc1nccc2c1c(=O)n(C)c1cc(OC[C@H](N)CC(C)C)c(C#N)cc21 | 8.00 to 9.00
Cc1cc2c3ccnc(C)c3c(=O)n(C)c2cc1OC[C@@H](N)CC(C)C | 8.00 to 9.00
CC(C)C[C@H](N)COc1ccc2c3ccnc(N)c3c(=O)n(C)c2c1 | 8.00 to 9.00

Please look at the following compound next.
Query :: For `Cc1cc2c3ccnc(C)c3c(=O)n(C)c2cc1OC[C@@H](N)CC1CC1` , what is its reported pIC50?
Result :: 8.00 to 9.00
